- Organism: Rattus norvegicus
- Procedure summary: Selectivity ratio for Sprague-Dawley rat thoracic aorta adrenergic alpha-1D receptor to Sprague-Dawley rat prostatic vas deferens adrenergic alpha-1A receptor
Could you label it Criterion met if measured Ratio is 2 or higher, and Criterion not met otherwise?

INSERT INTO measurements (compound, label) VALUES
  ('COc1ccccc1N1CCN(CCCNC(=O)c2cn(C)c3ccccc23)CC1', 'Criterion met'),
  ('COc1ccccc1N1CCN(CCCNC(=O)c2cc3cccc([N+](=O)[O-])c3[nH]2)CC1', 'Criterion met'),
  ('COc1ccccc1N1CCN(CCCNC(=O)c2cc3ccc(Br)cc3[nH]2)CC1', 'Criterion met'),
  ('COc1ccccc1N1CCN(CC(O)COc2cccc3ccccc23)CC1 (configuration not stated)', 'Criterion met'),
  ('COc1ccccc1N1CCN(CCCNC(=O)Cc2c[nH]c3ccccc23)CC1', 'Criterion not met'),
  ('COc1ccccc1N1CCN(CCCNC(=O)CCc2c[nH]c3ccccc23)CC1', 'Criterion met'),
  ('COc1ccccc1N1CCN(CCCNC(=O)c2ccc3[nH]ccc3c2)CC1', 'Criterion met'),
  ('COc1ccccc1N1CCN(CCCNC(=O)c2cc3ccccc3n2Cc2ccccc2)CC1', 'Criterion met');

input: Is Ratio for `COc1ccccc1N1CCN(CCCNC(=O)CCCc2c[nH]c3ccccc23)CC1` at or above 2?
output: Criterion met

input: Exam item: decide whether the reported Ratio for `COc1ccccc1N1CCN(CCCNC(=O)c2cc3cc(Cl)ccc3[nH]2)CC1` is at least 2.
output: Criterion met

input: Does the compound `COc1ccc2[nH]c(C(=O)NCCCN3CCN(c4ccccc4OC)CC3)cc2c1` have recorded Ratio that is 2 or more?
output: Criterion not met

* * *

- Target or test system: Alpha-1D adrenergic receptor (Rattus norvegicus)
- Procedure summary: Antagonist activity at Sprague-Dawley rat thoracic aorta adrenergic alpha-1D receptor after 20 mins
- Conditions: read-out: pA2 (converted)
Items are presented alongside their recorded Kb.
API: value field is a number in nM; no unit string.

Study these solved cases before continuing.
INSERT INTO measurements (substance_smiles, endpoint_unit, result_value) VALUES
  ('COc1ccccc1N1CCN(CCCNC(=O)c2cc3ccccc3n2Cc2ccccc2)CC1', 'nM', 2.75),
  ('COc1ccccc1N1CCN(CCCNC(=O)CCCc2c[nH]c3ccccc23)CC1', 'nM', 5.13),
  ('COc1ccc2[nH]c(C(=O)NCCCN3CCN(c4ccccc4OC)CC3)cc2c1', 'nM', 58.9);

input: Find the measured Kb of `COc1ccccc1N1CCN(CCCNC(=O)c2cn(C)c3ccccc23)CC1` and report it.
output: 5.5

input: Specify reported Kb for the compound shown: `COc1ccccc1N1CCN(CCCNC(=O)c2cc3cc(O)ccc3[nH]2)CC1`
output: 26.9

input: Please supply the value of reported Kb for the item `COc1ccccc1N1CCN(CCCNC(=O)c2cc3ccc(Br)cc3[nH]2)CC1`
output: 15.1

input: Recall and state the measured Kb for `COc1ccccc1N1CCN(CCCNC(=O)Cc2c[nH]c3ccccc23)CC1` .
output: 5.25

input: Determine its reported Kb: `COc1ccccc1N1CCN(CCCNC(=O)CCc2c[nH]c3ccccc23)CC1`
output: 34.7

input: Using known records, supply Kb for `COc1ccccc1N1CCN(CCCNC(=O)c2cc3cccc([N+](=O)[O-])c3[nH]2)CC1`
output: 28.2

input: Name the recorded Kb of the item `COc1ccccc1N1CCN(CCCNC(=O)c2cc3cc(Cl)ccc3[nH]2)CC1` in your answer.
output: 19.5

* * *

- Target or test system: Alpha-1D adrenergic receptor (Rattus norvegicus, UniProt P23944)
- Sequence (P23944 whole entry): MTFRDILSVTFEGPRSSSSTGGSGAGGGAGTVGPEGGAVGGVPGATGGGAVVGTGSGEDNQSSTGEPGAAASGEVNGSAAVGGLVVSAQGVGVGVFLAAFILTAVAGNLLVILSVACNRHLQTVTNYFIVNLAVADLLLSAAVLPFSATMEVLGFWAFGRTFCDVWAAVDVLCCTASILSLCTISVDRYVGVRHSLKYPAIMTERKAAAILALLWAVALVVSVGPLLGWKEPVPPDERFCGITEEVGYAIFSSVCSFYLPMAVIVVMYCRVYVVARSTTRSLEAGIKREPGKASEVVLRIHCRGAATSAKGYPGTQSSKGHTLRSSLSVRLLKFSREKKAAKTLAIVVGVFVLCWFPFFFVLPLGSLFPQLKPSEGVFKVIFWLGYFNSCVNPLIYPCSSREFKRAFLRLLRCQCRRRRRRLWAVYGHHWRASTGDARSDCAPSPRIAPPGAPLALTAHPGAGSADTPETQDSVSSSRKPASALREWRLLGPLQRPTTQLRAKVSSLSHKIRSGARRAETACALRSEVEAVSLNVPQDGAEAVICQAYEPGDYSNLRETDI
- Procedure summary: Antagonist activity at Sprague-Dawley rat thoracic aorta adrenergic alpha-1D receptor after 20 mins
- Conditions: read-out: pA2 (converted)
Measure name: Kb (nM)
Note: unit nM is implicit; provide only the numeric part.

input: Please look at this compound and report its Kb: COc1ccccc1N1CCN(CC(O)COc2cccc3ccccc23)CC1 (stereo not drawn)
output: 11.7

input: Supply reported Kb belonging to this compound: `COc1ccccc1N1CCN(CCCNC(=O)c2ccc3[nH]ccc3c2)CC1`
output: 11.7

input: Provide only the value of recorded Kb for COc1cc2nc(N3CCN(C(=O)C4CCCO4)CC3)nc(N)c2cc1OC (stereo not drawn)
output: 1.48

* * *

- Target or test system: UniProtKB P43140
- Procedure summary: Antagonist activity at Sprague-Dawley rat prostatic vas deferens adrenergic alpha-1A receptor after 20 mins
- Conditions: read-out: pA2 (converted)
Measured log10 Kb of individual entries
Remember, log10 of Kb, in nM.

Solved entries:
INSERT INTO measurements (compound, measure_name, result_value) VALUES
  ('COc1ccccc1N1CCN(CCCNC(=O)CCc2c[nH]c3ccccc23)CC1', 'log10 Kb', 2.29),
  ('COc1ccccc1N1CCN(CCCNC(=O)CCCc2c[nH]c3ccccc23)CC1', 'log10 Kb', 1.10),
  ('COc1ccccc1N1CCN(CCCNC(=O)Cc2c[nH]c3ccccc23)CC1', 'log10 Kb', 0.90);

Okay, next one:
input: Quickly give me recorded log10 Kb for `COc1ccccc1N1CCN(CCCNC(=O)c2ccc3[nH]ccc3c2)CC1`
output: 1.42

* * *

- Target or test system: Alpha-1B adrenergic receptor (Rattus norvegicus, UniProt P15823)
- Sequence (P15823 whole entry): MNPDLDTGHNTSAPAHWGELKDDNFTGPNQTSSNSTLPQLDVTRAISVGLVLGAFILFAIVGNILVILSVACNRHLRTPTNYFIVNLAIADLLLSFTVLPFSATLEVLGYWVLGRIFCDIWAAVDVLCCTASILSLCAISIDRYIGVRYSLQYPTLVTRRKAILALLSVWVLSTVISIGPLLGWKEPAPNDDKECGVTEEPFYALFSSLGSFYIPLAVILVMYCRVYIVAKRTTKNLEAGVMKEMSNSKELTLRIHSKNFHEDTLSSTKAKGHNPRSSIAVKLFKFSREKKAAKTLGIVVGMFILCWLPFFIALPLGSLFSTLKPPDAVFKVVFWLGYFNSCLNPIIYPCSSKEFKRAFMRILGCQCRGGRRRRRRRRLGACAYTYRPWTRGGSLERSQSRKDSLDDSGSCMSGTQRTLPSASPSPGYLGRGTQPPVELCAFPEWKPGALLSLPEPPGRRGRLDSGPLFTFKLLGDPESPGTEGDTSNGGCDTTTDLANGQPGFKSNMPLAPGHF
- Procedure summary: Antagonist activity at Sprague-Dawley rat spleen adrenergic alpha-1B receptor after 20 mins
- Conditions: read-out: pA2 (converted)
// label = met if Kb is not less than 300 nM, otherwise not met

INSERT INTO results (compound, target_or_test_system, label) VALUES
  ('COc1ccccc1N1CCN(CCCNC(=O)c2ccc3[nH]ccc3c2)CC1', 'Alpha-1B adrenergic receptor (Rattus norvegicus, UniProt P15823)', 'not met');

Shifting focus to the compound that follows.
input: Is reported Kb greater than or equal to 300 nM here: `COc1ccccc1N1CCN(CCCNC(=O)CCCc2c[nH]c3ccccc23)CC1`
output: not met

* * *

- System: DU-145
- Procedure summary: Cytotoxicity against human DU145 cells after 48 hrs by WST-8 assay
- Format: functional, cell-based
- Conditions: DU-145, 48 h
The entries below are paired with their reported IC50.
Number only, in µM; omit the unit.

Recorded IC50, per entry:
INSERT INTO measurements (substance_smiles, result_value) VALUES
  ('COc1ccccc1N1CCN(CCCNC(=O)c2cc3cc(Cl)ccc3[nH]2)CC1', 47),
  ('COc1ccccc1N1CCN(CCCNC(=O)c2cc3ccc(Br)cc3[nH]2)CC1', 39.3);

Shifting focus to the molecule that follows.
input: Name the recorded IC50 of the molecule listed here: `COc1ccccc1N1CCN(CCCNC(=O)c2cc3ccccc3n2Cc2ccccc2)CC1`
output: 33.3

* * *

// reported Kb for each item listed
- Target or test system: Alpha-1A adrenergic receptor (Rattus norvegicus, UniProt P43140)
- Sequence (P43140 whole entry): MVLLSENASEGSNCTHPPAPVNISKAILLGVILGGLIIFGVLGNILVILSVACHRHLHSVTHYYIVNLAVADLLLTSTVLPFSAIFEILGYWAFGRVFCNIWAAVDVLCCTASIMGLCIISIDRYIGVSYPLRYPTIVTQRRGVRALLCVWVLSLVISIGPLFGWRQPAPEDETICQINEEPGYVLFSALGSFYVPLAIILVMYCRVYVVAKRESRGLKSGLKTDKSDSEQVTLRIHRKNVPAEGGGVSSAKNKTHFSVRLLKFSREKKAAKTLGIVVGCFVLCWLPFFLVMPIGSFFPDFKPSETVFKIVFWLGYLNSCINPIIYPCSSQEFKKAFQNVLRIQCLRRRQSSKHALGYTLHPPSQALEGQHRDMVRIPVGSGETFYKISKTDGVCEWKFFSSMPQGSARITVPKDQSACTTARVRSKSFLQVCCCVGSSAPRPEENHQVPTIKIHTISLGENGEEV
- Procedure summary: Antagonist activity at Sprague-Dawley rat prostatic vas deferens adrenergic alpha-1A receptor after 20 mins
- Conditions: read-out: pA2 (converted)

input: State its Kb: `COc1ccccc1N1CCN(CCCNC(=O)c2cc3ccc(Br)cc3[nH]2)CC1`
output: 69.2 nM

input: Specify Kb for `COc1ccccc1N1CCN(CCCNC(=O)c2cc3cc(O)ccc3[nH]2)CC1` and stop.
output: 55 nM

input: Item `COc1ccccc1N1CCN(CCCNC(=O)c2cc3cc(Cl)ccc3[nH]2)CC1` : provide Kb
output: 47.9 nM

* * *

- Target or test system: UniProtKB P15823
- Procedure summary: Antagonist activity at Sprague-Dawley rat spleen adrenergic alpha-1B receptor after 20 mins
- Conditions: read-out: pA2 (converted)
The label is condition met for Kb below 200 nM and condition not met for Kb equal to or exceeding 200 nM.

Field: example entries. Status: answers known.
INSERT INTO measurements (molecule, label) VALUES
  ('COc1ccccc1N1CCN(CCCNC(=O)c2cn(C)c3ccccc23)CC1', 'condition met'),
  ('COc1ccccc1N1CCN(CCCNC(=O)c2cc3ccccc3n2Cc2ccccc2)CC1', 'condition met'),
  ('COc1ccccc1N1CCN(CCCNC(=O)c2cc3cc(Cl)ccc3[nH]2)CC1', 'condition not met'),
  ('COc1ccccc1N1CCN(CCCNC(=O)Cc2c[nH]c3ccccc23)CC1', 'condition not met'),
  ('COc1ccc2[nH]c(C(=O)NCCCN3CCN(c4ccccc4OC)CC3)cc2c1', 'condition not met');

input: In plain terms, does `COc1ccccc1N1CCN(CCCNC(=O)c2cc3cccc([N+](=O)[O-])c3[nH]2)CC1` come in under 200 nM for Kb?
output: condition not met

* * *

- Target or test system: Alpha-1A adrenergic receptor (Rattus norvegicus, UniProt P43140)
- Procedure summary: Antagonist activity at Sprague-Dawley rat prostatic vas deferens adrenergic alpha-1A receptor after 20 mins
- Conditions: read-out: pA2 (converted)
Measured Kb by item
Answer in nM, number only, no unit symbol.

INSERT INTO results (compound, result_value) VALUES
  ('COc1ccccc1N1CCN(CCCNC(=O)c2cc3cccc([N+](=O)[O-])c3[nH]2)CC1', 58.9),
  ('COc1ccccc1N1CCN(CC(O)COc2cccc3ccccc23)CC1 (stereo not given)', 33.1),
  ('COc1ccc2[nH]c(C(=O)NCCCN3CCN(c4ccccc4OC)CC3)cc2c1', 77.6),
  ('COc1ccccc1N1CCN(CCCNC(=O)c2cc3ccccc3n2Cc2ccccc2)CC1', 7.41);

Continue with the next compound.
input: Supply reported Kb belonging to this compound: `COc1ccccc1N1CCN(CCCNC(=O)c2cn(C)c3ccccc23)CC1`
output: 52.5
